# Species: Homo sapiens
# TEST SUMMARY: Inhibition of human lysosome beta-glucosidase using p-nitrophenyl glycoside as substrate assessed as release of p-nitrophenol at 1000 uM by spectrometric analysis relative to control
EXPERIMENTAL ENDPOINT: inhibition
Could you give the number and then its unit, please?

So for `O[C@H]1[C@H]2[C@H](O)CC(F)(F)CN2C[C@H]1O` , the logged inhibition turned out to be 0%

So for O[C@H]1[C@H]2[C@H](O)CCCN2C[C@H]1O [TRIDOLGOSIR] , the logged inhibition turned out to be 0%

So for `O[C@@H]1[C@@H]2[C@@H](O)CC(F)(F)CN2C[C@@H]1O` , the logged inhibition turned out to be 0%

So for `O[C@H]1[C@H]2[C@H](O)C[C@H](F)CN2C[C@H]1O` , the logged inhibition turned out to be 6%

So for `O[C@H]1[C@H]2[C@@H](O)C[C@H](F)CN2C[C@H]1O` , the logged inhibition turned out to be 7.1%

So for `O[C@H]1[C@H]2[C@@H](O)CCCN2C[C@H]1O` , the logged inhibition turned out to be 0%

So for `O[C@H]1[C@H]2[C@H](O)C[C@@H](F)CN2C[C@H]1O` , the logged inhibition turned out to be 0.4%

So for `O[C@@H]1[C@@H]2[C@@H](O)C[C@H](F)CN2C[C@@H]1O` , the logged inhibition turned out to be 9.6%

So for `O[C@@H]1[C@@H]2[C@@H](O)C[C@@H](F)CN2C[C@@H]1O` , the logged inhibition turned out to be 43.5%

So for `O[C@H]1[C@H]2[C@@H](O)CC(F)(F)CN2C[C@H]1O` , the logged inhibition turned out to be 0%

So for `O[C@H]1[C@H]2[C@@H](O)C[C@@H](F)CN2C[C@H]1O` , the logged inhibition turned out to be 17.3%

So for `O[C@@H]1[C@@H]2[C@H](O)CC(F)(F)CN2C[C@@H]1O` , the logged inhibition turned out to be 0.7%

So for `O[C@@H]1[C@@H]2[C@H](O)C[C@@H](F)CN2C[C@@H]1O` , the logged inhibition turned out to be 3.4%

So for `O[C@@H]1[C@@H]2[C@H](O)CCCN2C[C@@H]1O` , the logged inhibition turned out to be 3.1%

So for `O[C@@H]1[C@@H]2[C@@H](O)CCCN2C[C@@H]1O` , the logged inhibition turned out to be 4.8%

====

# Species on record: Rattus norvegicus
# TEST SUMMARY: Inhibition of rat intestinal Alpha-glucosidase using p-nitrophenyl glycoside as substrate assessed as p-nitrophenol release at 1000 uM by spectrometric analysis relative to control
Assign a class from recorded inhibition; defined classes: band 1: < 10%; band 2: ≥ 10% and < 20%; band 3: ≥ 20%

// bin(item) where item = `O[C@H]1[C@H]2[C@@H](O)CC(F)(F)CN2C[C@H]1O` band 3

// bin(item) where item = `O[C@@H]1[C@@H]2[C@H](O)CCCN2C[C@@H]1O` band 1

// bin(item) where item = `O[C@H]1[C@H]2[C@H](O)CCCN2C[C@H]1O` band 2

// bin(item) where item = `O[C@@H]1[C@@H]2[C@@H](O)C[C@H](F)CN2C[C@@H]1O` band 2

// bin(item) where item = `O[C@@H]1[C@@H]2[C@H](O)CC(F)(F)CN2C[C@@H]1O` band 1

// bin(item) where item = `O[C@H]1[C@H]2[C@@H](O)CCCN2C[C@H]1O` band 1

// bin(item) where item = `O[C@@H]1[C@@H]2[C@H](O)C[C@@H](F)CN2C[C@@H]1O` band 2

// bin(item) where item = `O[C@H]1[C@H]2[C@H](O)C[C@@H](F)CN2C[C@H]1O` band 3

// bin(item) where item = `O[C@H]1[C@H]2[C@H](O)C[C@H](F)CN2C[C@H]1O` band 2

// bin(item) where item = `O[C@H]1[C@H]2[C@H](O)CC(F)(F)CN2C[C@H]1O` band 2

// bin(item) where item = `O[C@H]1[C@H]2[C@@H](O)C[C@@H](F)CN2C[C@H]1O` band 2

====

Please go through the items and note down their inhibition.
# Species: Bos taurus
# TEST SUMMARY: Inhibition of bovine liver beta-glucosidase using p-nitrophenyl glycoside as substrate assessed as release of p-nitrophenol at 1000 uM by spectrometric analysis relative to control
Report as a plain number; the unit % is understood.

So for `O[C@H]1[C@H]2[C@@H](O)CC(F)(F)CN2C[C@H]1O` , the logged inhibition turned out to be 5.8

So for `O[C@@H]1[C@@H]2[C@@H](O)CCCN2C[C@@H]1O` , the logged inhibition turned out to be 33

So for `O[C@@H]1[C@@H]2[C@H](O)C[C@@H](F)CN2C[C@@H]1O` , the logged inhibition turned out to be 9

So for `O[C@H]1[C@H]2[C@@H](O)C[C@H](F)CN2C[C@H]1O` , the logged inhibition turned out to be 3.8

So for `O[C@H]1[C@H]2[C@H](O)CC(F)(F)CN2C[C@H]1O` , the logged inhibition turned out to be 23.7

So for `O[C@@H]1[C@@H]2[C@H](O)CC(F)(F)CN2C[C@@H]1O` , the logged inhibition turned out to be 10.2

So for `O[C@@H]1[C@@H]2[C@@H](O)CC(F)(F)CN2C[C@@H]1O` , the logged inhibition turned out to be 38.5

So for `O[C@@H]1[C@@H]2[C@@H](O)C[C@@H](F)CN2C[C@@H]1O` , the logged inhibition turned out to be 25.6

So for `O[C@H]1[C@H]2[C@@H](O)CCCN2C[C@H]1O` , the logged inhibition turned out to be 4.5

So for `O[C@H]1[C@H]2[C@H](O)C[C@H](F)CN2C[C@H]1O` , the logged inhibition turned out to be 2.6

So for `O[C@H]1[C@H]2[C@H](O)CCCN2C[C@H]1O` , the logged inhibition turned out to be 11.5

So for `O[C@@H]1[C@@H]2[C@@H](O)C[C@H](F)CN2C[C@@H]1O` , the logged inhibition turned out to be 16

So for `O[C@@H]1[C@@H]2[C@H](O)C[C@H](F)CN2C[C@@H]1O` , the logged inhibition turned out to be 38.5

So for `O[C@H]1[C@H]2[C@@H](O)C[C@@H](F)CN2C[C@H]1O` , the logged inhibition turned out to be 19.9

So for `O[C@H]1[C@H]2[C@H](O)C[C@@H](F)CN2C[C@H]1O` , the logged inhibition turned out to be 5.1

So for `O[C@@H]1[C@@H]2[C@H](O)CCCN2C[C@@H]1O` , the logged inhibition turned out to be 0

====

Please go through the items and note down their inhibition.
# TEST TARGET: Alpha-mannosidase (Canavalia ensiformis)
# TEST SUMMARY: Inhibition of jack bean alpha-mannosidase using p-nitrophenyl glycoside as substrate assessed as release of p-nitrophenol at 1000 uM by spectrometric analysis relative to control
Report as a plain number; the unit % is understood.

So for `O[C@H]1[C@H]2[C@@H](O)C[C@@H](F)CN2C[C@H]1O` , the logged inhibition turned out to be 14.4

So for `O[C@@H]1[C@@H]2[C@H](O)C[C@H](F)CN2C[C@@H]1O` , the logged inhibition turned out to be 0

So for `O[C@H]1[C@H]2[C@@H](O)C[C@H](F)CN2C[C@H]1O` , the logged inhibition turned out to be 14.9

So for `O[C@@H]1[C@@H]2[C@@H](O)CCCN2C[C@@H]1O` , the logged inhibition turned out to be 7.2

So for O[C@H]1[C@H]2[C@H](O)CCCN2C[C@H]1O [TRIDOLGOSIR] , the logged inhibition turned out to be 0.28

So for `O[C@@H]1[C@@H]2[C@H](O)C[C@@H](F)CN2C[C@@H]1O` , the logged inhibition turned out to be 18.8

So for `O[C@H]1[C@H]2[C@H](O)C[C@H](F)CN2C[C@H]1O` , the logged inhibition turned out to be 0.78

So for `O[C@@H]1[C@@H]2[C@H](O)CCCN2C[C@@H]1O` , the logged inhibition turned out to be 2.8

So for `O[C@@H]1[C@@H]2[C@H](O)CC(F)(F)CN2C[C@@H]1O` , the logged inhibition turned out to be 44.8

So for `O[C@H]1[C@H]2[C@H](O)CC(F)(F)CN2C[C@H]1O` , the logged inhibition turned out to be 0.44

====

# TEST TARGET: Alpha-mannosidase (Canavalia ensiformis, UniProt C0HJB3)
# Sequence (C0HJB3 whole entry): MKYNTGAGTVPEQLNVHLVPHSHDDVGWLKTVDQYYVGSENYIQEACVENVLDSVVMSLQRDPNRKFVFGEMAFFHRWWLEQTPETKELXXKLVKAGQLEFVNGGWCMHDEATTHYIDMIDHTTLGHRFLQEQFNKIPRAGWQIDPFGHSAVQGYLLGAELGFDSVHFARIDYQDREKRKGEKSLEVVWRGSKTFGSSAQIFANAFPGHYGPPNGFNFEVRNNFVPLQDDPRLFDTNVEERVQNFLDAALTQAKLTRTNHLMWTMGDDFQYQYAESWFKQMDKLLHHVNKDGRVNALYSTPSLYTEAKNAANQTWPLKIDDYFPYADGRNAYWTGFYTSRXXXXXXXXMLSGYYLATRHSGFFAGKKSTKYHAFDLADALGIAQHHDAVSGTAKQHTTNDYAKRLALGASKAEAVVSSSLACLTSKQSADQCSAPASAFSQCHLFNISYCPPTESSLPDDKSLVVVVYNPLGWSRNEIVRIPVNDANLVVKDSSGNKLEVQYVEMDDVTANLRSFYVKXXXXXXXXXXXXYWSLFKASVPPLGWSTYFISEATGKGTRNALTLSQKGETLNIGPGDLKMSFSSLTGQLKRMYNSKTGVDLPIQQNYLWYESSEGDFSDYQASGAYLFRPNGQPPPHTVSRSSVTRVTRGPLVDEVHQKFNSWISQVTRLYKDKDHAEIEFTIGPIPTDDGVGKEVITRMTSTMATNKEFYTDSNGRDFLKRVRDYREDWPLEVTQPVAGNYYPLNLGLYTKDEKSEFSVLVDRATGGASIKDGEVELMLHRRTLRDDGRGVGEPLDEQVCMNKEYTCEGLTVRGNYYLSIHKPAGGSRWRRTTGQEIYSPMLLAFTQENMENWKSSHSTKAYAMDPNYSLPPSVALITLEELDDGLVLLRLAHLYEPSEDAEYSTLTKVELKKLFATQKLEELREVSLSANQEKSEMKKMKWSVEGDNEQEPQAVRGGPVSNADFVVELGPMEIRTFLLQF
EXPERIMENTAL ENDPOINT: pIC50
pIC50 field: float, defined as -log10 of concentration (mol/L).

So for `O=C(C[C@H]1CC[C@@H](O)[C@@H]2[C@H](O)[C@H](O)CN12)c1ccccc1` , the logged pIC50 turned out to be 6.29

So for `CC(C)(C)c1ccc(C(=O)C[C@@H]2CC[C@@H](O)[C@@H]3[C@H](O)[C@H](O)CN23)cc1` , the logged pIC50 turned out to be 5.60

So for `O[C@H]1[C@H]2[C@H](O)C[C@H](CCOCc3ccccc3)CN2C[C@H]1O` , the logged pIC50 turned out to be 3.64

So for `CC(C)(C)c1ccc(CC[C@@H]2CC[C@@H](O)[C@@H]3[C@H](O)[C@H](O)CN23)cc1` , the logged pIC50 turned out to be 5.43
